- System: NCI-H23 lung
- method-summary: NCI-60 one-dose screen, 48 h (100 = growth as untreated, 0 = no growth, -100 = all killed)
- particulars: 10 µM unless noted
Compounds without any hit were thinned out: in the full panel of roughly 83,000, 20% have a hit.
Classification by growth follows these ranges: lower segment: < 60%; middle segment: ≥ 60% and < 90%; upper segment: ≥ 90%

Cc1nc2nc(C(F)(F)F)[nH]c2nc1C : upper segment

Please indicate the class for COc1cccc(Nc2nc(NCCO)c3ccccc3n2)c1 based on its growth.
middle segment

Please indicate the class for O=c1oc2ccccc2cc1-c1csc(N/N=C/c2cc3ccccc3nc2Cl)n1 based on its growth.
upper segment
